# tgt: ERα (Homo sapiens, UniProt P03372)
# Sequence (P03372 whole entry): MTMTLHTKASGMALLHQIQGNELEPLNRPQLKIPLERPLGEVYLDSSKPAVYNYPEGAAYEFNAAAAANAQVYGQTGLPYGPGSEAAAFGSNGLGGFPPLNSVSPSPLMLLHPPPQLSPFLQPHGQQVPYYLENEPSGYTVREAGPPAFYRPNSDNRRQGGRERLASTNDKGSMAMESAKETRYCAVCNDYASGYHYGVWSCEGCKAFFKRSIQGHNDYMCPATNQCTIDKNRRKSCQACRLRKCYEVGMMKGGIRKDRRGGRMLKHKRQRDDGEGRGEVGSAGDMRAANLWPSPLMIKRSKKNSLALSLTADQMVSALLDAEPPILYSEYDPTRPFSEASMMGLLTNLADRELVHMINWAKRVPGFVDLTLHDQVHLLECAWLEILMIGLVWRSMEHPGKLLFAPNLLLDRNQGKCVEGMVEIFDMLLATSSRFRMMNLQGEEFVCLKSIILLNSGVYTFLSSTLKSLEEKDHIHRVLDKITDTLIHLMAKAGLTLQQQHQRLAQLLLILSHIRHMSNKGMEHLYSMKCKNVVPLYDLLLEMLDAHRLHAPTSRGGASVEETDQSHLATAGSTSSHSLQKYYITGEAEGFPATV
# experiment: Degradation of ERα in MCF-7 cells (immunoblotting, 4 h)
# Type: cell-based
# condition: 10nM compound
Label rule, in plain words: Degradation rate (%) of ERα in MCF-7 cells of 70% and up is Yes, under 70% is No.

compound	qualitative_label
O=C1CCC(N2Cc3c(ccc4c3OCC43CCN(C(=O)CC4CCN(C(=O)C5CCN(c6ccc([C@@H]7c8ccc(O)cc8CC[C@@H]7c7ccccc7)cc6)CC5)CC4)CC3)C2=O)C(=O)N1 (some centres unmarked)	No
O=C1CCC(N2Cc3c(ccc4c3OCC43CCN(C4CCN(C5CC6(CCN(c7ccc([C@@H]8c9ccc(O)cc9CC[C@@H]8c8ccccc8)cc7)CC6)C5)[C@@H](C(=O)N5CCC(F)(F)CC5)C4)CC3)C2=O)C(=O)N1 (some centres unmarked)	Yes
CN(CC(=O)N1CCC2(CC1)COc1c2ccc2c1CN(C1CCC(=O)NC1=O)C2=O)CC1CCN(c2ccc([C@@H]3c4ccc(O)cc4CC[C@@H]3c3ccccc3)cc2)CC1 (some centres unmarked)	Yes

In the following, a different compound is considered.
Query string: Quick check: does O=C1CCC(N2Cc3ccc4c(c3C2=O)OC2(CC4)CCN(C3CC4(CCN(c5ccc([C@@H]6c7ccc(O)cc7CC[C@@H]6c6ccccc6)cc5)CC4)C3)CC2)C(=O)N1 (some centres unmarked) have Degradation rate (%) of ERα in MCF-7 cells greater than or equal to 70%?
Result string: No
